meta.source: the supplement of paper PMC6757056

Listing of recorded normalized RNA/DNA level without ligand (log10) by entry.
B1: library; a variant is named by its letters at N, in order (parent)
chain: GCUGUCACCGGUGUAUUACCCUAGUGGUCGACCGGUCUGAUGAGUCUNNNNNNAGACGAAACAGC

Variants of: B1
Assay: normalized RNA/DNA level without ligand (relative to sTRSVctl = 100) (log10 (% of sTRSVctl)); ligand: hypoxanthine (xanthine aptamer); higher = less ribozyme self-cleavage, higher mRNA level
Settings: HEK293T, reporter: mCherry (pCS4076), ligand present: no
Reported property: normalized RNA/DNA level without ligand (log10)

>>> df
                              sequence_input  data_value
 0  GCUGUCACCGGUGUAUUACCCUAGUGGUCGACCGGUCUGAUGAGUCUAGCGCGAGACGAAACAGC [AGCGCG]        1.43
 1  GCUGUCACCGGUGUAUUACCCUAGUGGUCGACCGGUCUGAUGAGUCUCGCGCAAGACGAAACAGC [CGCGCA]        1.81
 2  GCUGUCACCGGUGUAUUACCCUAGUGGUCGACCGGUCUGAUGAGUCUCUUGACAGACGAAACAGC [CUUGAC]        1.81
 3  GCUGUCACCGGUGUAUUACCCUAGUGGUCGACCGGUCUGAUGAGUCUCAAGCCAGACGAAACAGC [CAAGCC]        1.87
 4  GCUGUCACCGGUGUAUUACCCUAGUGGUCGACCGGUCUGAUGAGUCUCCAUCGAGACGAAACAGC [CCAUCG]        1.79
 5  GCUGUCACCGGUGUAUUACCCUAGUGGUCGACCGGUCUGAUGAGUCUGCCGGCAGACGAAACAGC [GCCGGC]        1.76
 6  GCUGUCACCGGUGUAUUACCCUAGUGGUCGACCGGUCUGAUGAGUCUCAGCCGAGACGAAACAGC [CAGCCG]        1.88
 7  GCUGUCACCGGUGUAUUACCCUAGUGGUCGACCGGUCUGAUGAGUCUUUAGUCAGACGAAACAGC [UUAGUC]        1.98
 8  GCUGUCACCGGUGUAUUACCCUAGUGGUCGACCGGUCUGAUGAGUCUCAAAGGAGACGAAACAGC [CAAAGG]        1.26
 9  GCUGUCACCGGUGUAUUACCCUAGUGGUCGACCGGUCUGAUGAGUCUAGAUCCAGACGAAACAGC [AGAUCC]        1.87
10  GCUGUCACCGGUGUAUUACCCUAGUGGUCGACCGGUCUGAUGAGUCUUAGUAGAGACGAAACAGC [UAGUAG]        1.49
